Target: TYK2 (Homo sapiens (Human), UniProt P29597)
Sequence (P29597 whole entry, species assumed): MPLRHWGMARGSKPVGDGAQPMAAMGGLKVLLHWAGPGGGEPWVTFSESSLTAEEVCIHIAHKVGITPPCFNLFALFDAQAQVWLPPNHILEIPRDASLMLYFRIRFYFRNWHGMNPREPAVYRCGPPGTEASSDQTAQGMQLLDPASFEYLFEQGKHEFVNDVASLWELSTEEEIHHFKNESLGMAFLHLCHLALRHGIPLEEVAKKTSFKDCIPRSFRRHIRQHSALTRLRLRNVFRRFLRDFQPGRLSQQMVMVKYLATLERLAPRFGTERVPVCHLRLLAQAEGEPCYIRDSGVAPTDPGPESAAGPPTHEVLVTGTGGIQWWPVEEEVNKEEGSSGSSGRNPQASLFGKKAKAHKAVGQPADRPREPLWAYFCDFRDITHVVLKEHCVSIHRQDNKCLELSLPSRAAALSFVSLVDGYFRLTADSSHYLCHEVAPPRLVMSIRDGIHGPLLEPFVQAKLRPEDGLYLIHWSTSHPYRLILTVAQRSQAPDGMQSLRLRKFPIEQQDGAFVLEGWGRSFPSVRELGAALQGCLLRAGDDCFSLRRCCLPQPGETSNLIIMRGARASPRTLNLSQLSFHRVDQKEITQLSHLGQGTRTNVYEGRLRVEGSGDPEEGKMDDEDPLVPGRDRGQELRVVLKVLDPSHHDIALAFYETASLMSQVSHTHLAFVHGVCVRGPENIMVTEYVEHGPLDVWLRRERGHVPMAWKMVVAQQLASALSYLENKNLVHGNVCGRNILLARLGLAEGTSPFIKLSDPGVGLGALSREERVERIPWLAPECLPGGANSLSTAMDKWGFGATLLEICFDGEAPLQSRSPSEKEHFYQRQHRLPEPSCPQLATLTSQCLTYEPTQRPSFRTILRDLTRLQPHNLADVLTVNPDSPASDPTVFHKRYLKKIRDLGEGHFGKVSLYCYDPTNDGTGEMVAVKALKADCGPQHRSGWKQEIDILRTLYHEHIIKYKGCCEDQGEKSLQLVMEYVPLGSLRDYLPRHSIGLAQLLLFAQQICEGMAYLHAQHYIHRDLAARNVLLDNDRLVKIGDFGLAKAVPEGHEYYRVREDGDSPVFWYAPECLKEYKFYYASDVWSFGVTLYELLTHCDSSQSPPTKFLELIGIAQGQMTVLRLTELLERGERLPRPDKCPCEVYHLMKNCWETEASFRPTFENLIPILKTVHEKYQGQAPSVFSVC
Assay: Eurofins IC50Profiler radiometric kinase assay, TYK2
Assay type: biochemical
Details: 9 semilog concentrations
experimentalReadout: IC50

>  <molecule>
C=CC(=O)N(C)c1cc(Nc2ncc(Cl)c(NCCCNC(=O)c3ccc(C#N)cc3)n2)ccc1F

>  <IC50>
> 10 µM

$$$$

Query: Give the reported IC50 for this molecule. C=CC(=O)N(C)c1cc(Nc2ncc(Cl)c(NCCCNC(=O)c3ccc(C(F)(F)F)cc3)n2)ccc1F
Response: > 10 µM

----------
Molecular target: Flt1 (Homo sapiens (Human), UniProt P17948)
experimentalReadout: pIC50
When answering, recall that pIC50 equals minus log10 of the concentration in mol/L, and write that number alone.

Query: Return reported pIC50 for target or system Flt1 (Homo sapiens (Human), UniProt P17948), item C=CC(=O)N(C)c1cc(Nc2ncc(Cl)c(NCCCNC(=O)c3ccc(C#N)cc3)n2)ccc1F [Example 7] .
Response: 6.16

----------
Molecular target: JAK1 (Homo sapiens (Human), UniProt P23458)
Sequence (P23458 whole entry): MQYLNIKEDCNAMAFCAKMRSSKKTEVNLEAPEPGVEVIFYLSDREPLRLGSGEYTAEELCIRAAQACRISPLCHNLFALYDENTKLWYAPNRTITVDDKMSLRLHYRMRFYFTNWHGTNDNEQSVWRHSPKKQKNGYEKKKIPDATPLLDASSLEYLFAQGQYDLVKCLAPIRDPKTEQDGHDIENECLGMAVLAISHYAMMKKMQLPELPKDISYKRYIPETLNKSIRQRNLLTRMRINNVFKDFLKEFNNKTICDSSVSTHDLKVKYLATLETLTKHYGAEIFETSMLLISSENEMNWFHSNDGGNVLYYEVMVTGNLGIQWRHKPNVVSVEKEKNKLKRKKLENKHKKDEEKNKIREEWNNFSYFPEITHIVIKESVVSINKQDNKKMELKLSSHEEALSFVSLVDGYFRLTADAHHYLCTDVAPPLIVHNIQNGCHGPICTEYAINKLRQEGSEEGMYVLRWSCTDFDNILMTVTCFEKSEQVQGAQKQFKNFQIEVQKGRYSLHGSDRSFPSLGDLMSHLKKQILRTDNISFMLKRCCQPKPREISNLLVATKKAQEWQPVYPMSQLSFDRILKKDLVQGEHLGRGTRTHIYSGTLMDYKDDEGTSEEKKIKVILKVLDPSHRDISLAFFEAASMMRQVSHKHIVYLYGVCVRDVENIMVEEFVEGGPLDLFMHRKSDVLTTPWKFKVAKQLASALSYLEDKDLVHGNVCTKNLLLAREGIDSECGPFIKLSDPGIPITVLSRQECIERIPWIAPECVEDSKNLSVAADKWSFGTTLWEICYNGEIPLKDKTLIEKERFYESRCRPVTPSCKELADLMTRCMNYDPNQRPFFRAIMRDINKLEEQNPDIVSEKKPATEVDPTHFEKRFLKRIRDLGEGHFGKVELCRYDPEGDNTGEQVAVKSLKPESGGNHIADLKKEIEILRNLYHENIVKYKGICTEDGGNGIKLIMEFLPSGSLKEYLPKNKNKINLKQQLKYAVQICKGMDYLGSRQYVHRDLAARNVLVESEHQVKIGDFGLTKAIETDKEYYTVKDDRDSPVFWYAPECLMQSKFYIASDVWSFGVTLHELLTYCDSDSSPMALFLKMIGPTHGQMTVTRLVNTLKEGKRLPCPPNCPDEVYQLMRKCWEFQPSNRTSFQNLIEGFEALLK
Assay: Z'-LYTE enzymatic activity detection, JAK1
Type: biochemical
Conditions: test compound 300 nM
Mark False for JAK1 RV (ratio between the inhibitory rate of the test compound and that of Xeljanz) values under 0.2, and True for everything at or above.

>  <molecule>
C=CC(=O)N(C)c1cc(Nc2ncc(Cl)c(NCCCNC(=O)c3ccc(OC)cc3)n2)ccc1F

>  <assayTarget>
JAK1 (Homo sapiens (Human), UniProt P23458)

>  <labelValue>
False

$$$$
>  <molecule>
C=CC(=O)N(C)c1cc(Nc2ncc(Cl)c(NCCCNC(=O)c3cc(F)c(F)c(F)c3F)n2)ccc1F

>  <assayTarget>
JAK1 (Homo sapiens (Human), UniProt P23458)

>  <labelValue>
True

$$$$

Query: Check the entry C=CC(=O)N(C)c1cc(Nc2ncc(Cl)c(NCCCNC(=O)c3ccc(F)cc3)n2)ccc1F : does JAK1 RV (ratio between the inhibitory rate of the test compound and that of Xeljanz) equal or exceed 0.2?
Response: True

Query: Check the entry C=CC(=O)N(C)c1cc(Nc2ncc(Cl)c(NCCCNC(=O)c3ccncc3)n2)ccc1F : does JAK1 RV (ratio between the inhibitory rate of the test compound and that of Xeljanz) equal or exceed 0.2?
Response: False

Query: Check the entry C=CC(=O)N(C)c1cc(Nc2ncc(Cl)c(NCCCNC(=O)c3ccc(C(F)(F)F)cc3)n2)ccc1F : does JAK1 RV (ratio between the inhibitory rate of the test compound and that of Xeljanz) equal or exceed 0.2?
Response: True

Query: Check the entry C=CC(=O)N(C)c1cc(Nc2ncc(C)c(NCCCNC(=O)c3ccc(C(F)(F)F)cc3)n2)ccc1F : does JAK1 RV (ratio between the inhibitory rate of the test compound and that of Xeljanz) equal or exceed 0.2?
Response: True

Query: Check the entry C=CC(=O)N(C)c1cc(Nc2ncc(Cl)c(NCCCNS(=O)(=O)c3ccc(C#N)cc3)n2)ccc1F : does JAK1 RV (ratio between the inhibitory rate of the test compound and that of Xeljanz) equal or exceed 0.2?
Response: False

Query: Check the entry C=CC(=O)N(C)c1cc(Nc2ncc(Cl)c(NCCCNC(=O)c3ccc(C(C)=O)cc3)n2)ccc1F : does JAK1 RV (ratio between the inhibitory rate of the test compound and that of Xeljanz) equal or exceed 0.2?
Response: False

----------
Form field: pIC50 (one value per entry).
Test system: IL-2/JAK1 & 3/STAT5 (CTLL-2)
Experiment: Intracellular activity assay, IL-2 induced STAT5 phosphorylation in CTLL-2
Format: cell-based
Settings: Mus musculus; inhibition of STAT5 phosphorylation, CTLL-2, IL-2 10 ng/mL
When answering, recall that pIC50 equals minus log10 of the concentration in mol/L, and write that number alone.

>  <molecule>
C=CC(=O)N(C)c1cc(Nc2ncc(Cl)c(NCCCNC(=O)c3ccc(C#N)cc3)n2)ccc1F

>  <assayTarget>
IL-2/JAK1 & 3/STAT5 (CTLL-2)

>  <pIC50>
7.10

$$$$

As a next step, examine the molecule that follows.
Query: Give the reported pIC50 for this molecule. C=CC(=O)N(C)c1cc(Nc2ncc(Cl)c(NCCCNC(=O)c3ccc(F)cc3)n2)ccc1F
Response: 6.89

----------
Form field: IC50 (one value per entry).
Target: TBK1 (Homo sapiens (Human))
Sequence (Q9UHD2 whole entry, species assumed): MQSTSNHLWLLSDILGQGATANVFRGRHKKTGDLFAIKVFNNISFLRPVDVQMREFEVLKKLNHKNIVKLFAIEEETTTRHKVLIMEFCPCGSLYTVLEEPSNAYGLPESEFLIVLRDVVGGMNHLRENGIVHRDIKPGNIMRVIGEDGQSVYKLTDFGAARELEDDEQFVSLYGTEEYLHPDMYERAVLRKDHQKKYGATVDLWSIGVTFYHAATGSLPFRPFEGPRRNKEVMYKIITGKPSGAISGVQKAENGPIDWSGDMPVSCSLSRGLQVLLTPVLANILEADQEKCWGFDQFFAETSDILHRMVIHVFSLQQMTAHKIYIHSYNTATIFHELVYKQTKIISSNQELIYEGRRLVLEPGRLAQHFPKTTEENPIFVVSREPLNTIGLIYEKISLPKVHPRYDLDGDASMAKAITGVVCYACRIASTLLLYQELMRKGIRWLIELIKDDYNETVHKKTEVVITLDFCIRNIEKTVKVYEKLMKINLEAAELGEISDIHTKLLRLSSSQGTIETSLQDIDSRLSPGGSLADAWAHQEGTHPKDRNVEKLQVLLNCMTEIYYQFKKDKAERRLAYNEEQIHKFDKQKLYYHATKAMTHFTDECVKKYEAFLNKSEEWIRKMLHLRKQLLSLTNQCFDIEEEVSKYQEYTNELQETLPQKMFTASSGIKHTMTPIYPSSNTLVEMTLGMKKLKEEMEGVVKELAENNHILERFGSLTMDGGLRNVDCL
Write the number in nM without appending the unit.

>  <molecule>
C=CC(=O)N(C)c1cc(Nc2ncc(Cl)c(NCCCNC(=O)c3ccc(F)cc3)n2)ccc1F

>  <experimentalReadout>
IC50

>  <recordedResult>
664

$$$$

As a next step, examine the compound that follows.
Query: Return reported IC50 for target or system TBK1 (Homo sapiens (Human)), item C=CC(=O)N(C)c1cc(Nc2ncc(Cl)c(NCCCNC(=O)c3ccc(C#N)cc3)n2)ccc1F .
Response: 162

----------
Form field: JAK2 RV (ratio between the inhibitory rate of the test compound and that of Xeljanz) (one value per entry).
Biological target: JAK2 (Homo sapiens (Human), UniProt O60674)
Sequence (O60674 whole entry): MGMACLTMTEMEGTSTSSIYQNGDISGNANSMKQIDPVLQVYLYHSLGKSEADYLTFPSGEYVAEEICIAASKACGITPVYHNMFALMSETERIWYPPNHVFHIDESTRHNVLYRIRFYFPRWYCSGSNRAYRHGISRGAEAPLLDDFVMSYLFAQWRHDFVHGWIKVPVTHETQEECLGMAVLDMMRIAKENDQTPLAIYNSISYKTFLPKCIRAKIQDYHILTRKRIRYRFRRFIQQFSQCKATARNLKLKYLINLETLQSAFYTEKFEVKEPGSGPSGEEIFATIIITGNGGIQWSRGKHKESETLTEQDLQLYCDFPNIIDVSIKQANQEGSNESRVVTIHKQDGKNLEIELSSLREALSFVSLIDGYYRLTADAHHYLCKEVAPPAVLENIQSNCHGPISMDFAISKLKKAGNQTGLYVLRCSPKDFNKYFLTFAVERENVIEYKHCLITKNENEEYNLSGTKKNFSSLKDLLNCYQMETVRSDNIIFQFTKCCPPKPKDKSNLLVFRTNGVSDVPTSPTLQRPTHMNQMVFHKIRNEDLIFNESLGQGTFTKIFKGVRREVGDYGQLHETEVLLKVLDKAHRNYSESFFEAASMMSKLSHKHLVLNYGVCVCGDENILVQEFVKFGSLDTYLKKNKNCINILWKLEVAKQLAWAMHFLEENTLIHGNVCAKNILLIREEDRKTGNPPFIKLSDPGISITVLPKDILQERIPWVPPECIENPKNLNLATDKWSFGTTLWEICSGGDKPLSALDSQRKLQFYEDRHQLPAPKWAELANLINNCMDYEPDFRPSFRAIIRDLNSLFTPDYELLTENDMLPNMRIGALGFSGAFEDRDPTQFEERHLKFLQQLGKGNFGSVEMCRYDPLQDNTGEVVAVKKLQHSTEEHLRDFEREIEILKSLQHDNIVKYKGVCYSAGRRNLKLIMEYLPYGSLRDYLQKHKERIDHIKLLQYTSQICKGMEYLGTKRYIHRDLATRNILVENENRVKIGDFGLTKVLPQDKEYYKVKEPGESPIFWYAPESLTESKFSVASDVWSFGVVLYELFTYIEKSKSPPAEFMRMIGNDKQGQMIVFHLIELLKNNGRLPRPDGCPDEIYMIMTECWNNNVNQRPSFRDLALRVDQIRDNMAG
Assay: Z'-LYTE enzymatic activity detection, JAK2
Assay type: biochemical
Conditions: test compound 30 nM

Examples with answers:
>  <molecule>
C=CC(=O)Nc1cc(Nc2ncc(Cl)c(NCCCNC(=O)c3ccc(C#N)cc3)n2)ccc1F

>  <recordedResult>
0.03

$$$$
>  <molecule>
C=CC(=O)N(C)c1cc(Nc2ncc(Cl)c(NCCCNC(=O)c3ccc(N(C)C)cc3)n2)ccc1F

>  <recordedResult>
0.03

$$$$

As a next step, examine the molecule that follows.
Query: Give the reported JAK2 RV (ratio between the inhibitory rate of the test compound and that of Xeljanz) for this molecule. C=CC(=O)Nc1cc(Nc2ncc(Cl)c(NCCCNC(=O)c3ccc(F)cc3)n2)ccc1F
Response: 0.03

----------
Target: JAK1 (Homo sapiens (Human), UniProt P23458)
Test: Z'-LYTE enzymatic activity detection, JAK1
Type: biochemical
Details: test compound 300 nM; read-out: JAK1 % inhibitory rate @300 nM
experimentalReadout: inhibition at 0.3 µM (%)
Write the number in % without appending the unit.

Examples with answers:
>  <molecule>
C=CC(=O)N(C)c1cc(Nc2ncc(C)c(NCCCNC(=O)c3ccc(C#N)cc3)n2)ccc1F

>  <recordedResult>
1

$$$$
>  <molecule>
C=CC(=O)N(C)c1cc(Nc2ncc(Cl)c(NCCCNC(=O)c3cc(F)c(F)c(F)c3F)n2)ccc1F

>  <recordedResult>
67

$$$$
>  <molecule>
C=CC(=O)N(C)c1cc(Nc2ncc(F)c(NCCCNC(=O)c3ccc(C#N)cc3)n2)ccc1F

>  <recordedResult>
0

$$$$
>  <molecule>
C=CC(=O)N(C)c1cc(Nc2ncc(C)c(NCCCNC(=O)c3ccc(C(F)(F)F)cc3)n2)ccc1F

>  <recordedResult>
59

$$$$

As a next step, examine the compound that follows.
Query: Give the reported inhibition at 0.3 µM for this compound. C=CC(=O)N(C)c1cc(Nc2ncc(Cl)c(NCCCNC(=O)c3ccc(C(F)F)cc3)n2)ccc1F
Response: 42

----------
Form field: inhibition at 0.03 µM (one value per entry).
Biological target: JAK2 (Homo sapiens (Human))
Experiment: Z'-LYTE enzymatic activity detection, JAK2
Assay type: biochemical
Details: test compound 30 nM; read-out: JAK2 % inhibitory rate @30 nM
Write the number in % without appending the unit.

Examples with answers:
>  <molecule>
C=CC(=O)N(C)c1cc(Nc2ncc(C)c(NCCCNC(=O)c3ccc(C#N)cc3)n2)ccc1F [Example 58]

>  <experimentalReadout>
inhibition at 0.03 µM

>  <recordedResult>
0

$$$$
>  <molecule>
C=CC(=O)Nc1cc(Nc2ncc(Cl)c(NCCCNC(=O)c3ccc(C(F)(F)F)cc3)n2)ccc1F [Example 13]

>  <experimentalReadout>
inhibition at 0.03 µM

>  <recordedResult>
0

$$$$
>  <molecule>
C=CC(=O)N(C)c1cc(Nc2ncc(F)c(NCCCNC(=O)c3ccc(C#N)cc3)n2)ccc1F [Example 60]

>  <experimentalReadout>
inhibition at 0.03 µM

>  <recordedResult>
0

$$$$
>  <molecule>
C=CC(=O)N(C)c1cc(Nc2ncc(Cl)c(NCCCNC(=O)Cc3ccc(C#N)cc3)n2)ccc1F [Example 64]

>  <experimentalReadout>
inhibition at 0.03 µM

>  <recordedResult>
0

$$$$
>  <molecule>
C=CC(=O)N(C)c1cc(Nc2ncc(Cl)c(NCCCNC(=O)c3ccc(C#N)cc3)n2)ccc1F [Example 7]

>  <experimentalReadout>
inhibition at 0.03 µM

>  <recordedResult>
5

$$$$
>  <molecule>
C=CC(=O)N(C)c1cc(Nc2ncc(Cl)c(NCCCNC(=O)c3ccc(C(F)F)cc3)n2)ccc1F [Example 115]

>  <experimentalReadout>
inhibition at 0.03 µM

>  <recordedResult>
0

$$$$
>  <molecule>
C=CC(=O)Nc1cc(Nc2ncc(Cl)c(NCCCNC(=O)c3ccc(F)cc3)n2)ccc1F [Example 17]

>  <experimentalReadout>
inhibition at 0.03 µM

>  <recordedResult>
1

$$$$
>  <molecule>
C=CC(=O)N(C)c1cc(Nc2ncc(Cl)c(NCCCNC(=O)c3ccc(OC)cc3)n2)ccc1F [Example 40]

>  <experimentalReadout>
inhibition at 0.03 µM

>  <recordedResult>
0

$$$$

Query: Give the reported inhibition at 0.03 µM for this molecule. C=CC(=O)N(C)c1cc(Nc2ncc(Cl)c(NCCCNC(=O)c3ccncc3)n2)ccc1F [Example 75]
Response: 0

Query: Give the reported inhibition at 0.03 µM for this molecule. C=CC(=O)N(C)c1cc(Nc2ncc(C)c(NCCCNC(=O)c3ccc(C(F)(F)F)cc3)n2)ccc1F [Example 21]
Response: 2

Query: Give the reported inhibition at 0.03 µM for this molecule. C=CC(=O)N(C)c1cc(Nc2ncc(Cl)c(NCCCNC(=O)c3ccc(C)cc3)n2)ccc1F [Example 83]
Response: 2
